- Target: endogenous GSTO1 (Homo sapiens)
- Sequence (P78417 1-241): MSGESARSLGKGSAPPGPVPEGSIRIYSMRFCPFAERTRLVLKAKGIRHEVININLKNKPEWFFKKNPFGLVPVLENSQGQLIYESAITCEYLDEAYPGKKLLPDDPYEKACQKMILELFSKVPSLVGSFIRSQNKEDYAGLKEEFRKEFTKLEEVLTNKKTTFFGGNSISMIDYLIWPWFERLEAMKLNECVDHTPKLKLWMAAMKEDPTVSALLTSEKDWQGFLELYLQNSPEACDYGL
- Assay comment: In-gel fluorescence competitive CMFDA binding assay, endogenous GSTO1 in HCT116
- Setup conditions: 10 µM; inhibition of CMFDA binding, HCT116
Property: GSTO binding assay (% Inhibition at 10 µM) Endogenous (%)

Some compounds with recorded GSTO binding assay (% Inhibition at 10 µM) Endogenous:
                                   compound                           target  units  reading
0            CC(=O)N1CCc2cc(NC(=O)CCl)ccc21  endogenous GSTO1 (Homo sapiens)      %     49.0
1  CC(NC(=O)CCl)C12CC3CC(CC(C3)C1)C2 (centres unmarked)  endogenous GSTO1 (Homo sapiens)      %     55.3
2   CCOC(=O)c1c(NC(=O)CCl)sc(Cl)c1-c1ccccc1  endogenous GSTO1 (Homo sapiens)      %     59.2

[I] O=C(CCl)Nc1ccnn1Cc1cccc(Cl)c1
[II] CCOC(=O)c1c(NC(=O)CCl)sc2c1CCN(CC)C2
Asked: Response body: label of entry with the larger GSTO binding assay (% Inhibition at 10 µM) Endogenous; valid values I , II . # reply format: chosen label
Given back: I
(I: 55.3%, II: 24.8%)

---

- Target: GSTO1 (Homo sapiens)
- Assay comment: GSTO1 substrate assay (reduction of 4-NPG)
- Setup conditions: 10 µM
Property: GSTO substrate assay % Inhibition at 10 µM (%)

Some compounds with recorded GSTO substrate assay % Inhibition at 10 µM:
                                   compound  reading
0    COc1ccc2cc(CN(C)C(=O)CCl)ccc2c1 [C4-6]     29.3
1      O=C(CCl)N(Cc1ccccc1)Cc1ccco1 [C4-15]     98.2
2  CCOc1ccc(NC(=O)CCl)cc1S(=O)(=O)N1CCCCC1 [C1-30]       75
3  Cc1cccc(NC(=S)NC(NC(=O)CCl)C(Cl)(Cl)Cl)c1 (stereo not drawn) [C3-27]     54.2
4  CCN(CC(=O)NC1CCS(=O)(=O)C1)C(=O)CCl (stereo not drawn) [C4-13]     27.2

[A] CN(c1ccccc1)S(=O)(=O)c1cccc(NC(=O)CCl)c1 [C1-28]
[B] CN(C)c1ccc(Cl)cc1NC(=O)CCl [C1-14]
[C] CC(NC(=O)CCl)C12CC3CC(CC(C3)C1)C2 (stereo not drawn) [C3-33]
[D] O=C(CCl)NC(=O)c1cccc2ccccc12 [C3-18]
Asked: Sequence the entries by GSTO substrate assay % Inhibition at 10 µM, beginning with the highest number. // format: requested-order list of labels
Given back: A, C, B, D

---

- Target: GSTO1 (Homo sapiens, UniProt P78417)
- Assay comment: In-gel fluorescence competitive CMFDA binding assay, recombinant GSTO1
- Setup conditions: inhibition of CMFDA binding
Property: GSTO binding assay (% Inhibition at 10 µM) Recombinant (%)

Some molecules with recorded GSTO binding assay (% Inhibition at 10 µM) Recombinant:
>>> print(df.to_string())
                                   molecule                                target  reading
0  CC(C)C(NC(=O)CCl)c1cccs1 (centres unmarked)  GSTO1 (Homo sapiens, UniProt P78417)     15.1
1   O=C(CCl)Nc1cc2c(cc1Cl)C(=O)c1ccccc1C2=O  GSTO1 (Homo sapiens, UniProt P78417)     26.5
2  O=C(CCl)Nc1cc([N+](=O)[O-])ccc1Nc1ccc(F)cc1  GSTO1 (Homo sapiens, UniProt P78417)     81.5
3        COc1ccc(-c2csc(NC(=O)CCl)n2)c(O)c1  GSTO1 (Homo sapiens, UniProt P78417)     82.4
4           COc1ccc2cc(CN(C)C(=O)CCl)ccc2c1  GSTO1 (Homo sapiens, UniProt P78417)     55.2
5  C=CCN(C(=O)CCl)c1nc(-c2ccc(Cl)c(Cl)c2)cs1  GSTO1 (Homo sapiens, UniProt P78417)     -8.2
6      COC(=O)c1c(-c2ccccc2Cl)csc1NC(=O)CCl  GSTO1 (Homo sapiens, UniProt P78417)     48.4
7               Cc1cc(NC(=O)CCl)ccc1N1CCCC1  GSTO1 (Homo sapiens, UniProt P78417)     49.2

[1] N#Cc1ccccc1S(=O)(=O)N1CCN(C(=O)CCl)CC1
[2] O=C(CCl)N1CCN(c2ccc(O)cc2)CC1
Asked: Response body: label of entry with the larger GSTO binding assay (% Inhibition at 10 µM) Recombinant; valid values 1 , 2 . # reply format: chosen label
Given back: 1

[I] CC1Cc2cc(S(N)(=O)=O)ccc2N1C(=O)CCl (centres unmarked)
[II] CC1CCN(c2ccc(NC(=O)CCl)cc2)CC1
Asked: Response body: label of entry with the larger GSTO binding assay (% Inhibition at 10 µM) Recombinant; valid values I , II . # reply format: chosen label
Given back: I
(I: 68.1%, II: 38.3%)

[A] O=C(CCl)Nc1nc2cc3c(cc2s1)OCCO3
[B] CN(C)C(CNC(=O)CCl)c1ccccc1 (centres unmarked)
[C] CCCCN(C(=O)CCl)c1c(N)n(CC(C)C)c(=O)[nH]c1=O
[D] COc1ccc(N2CCN(C(=O)CCl)CC2)cc1
[E] O=C(CCl)Nc1cc(C(F)(F)F)ccc1N1CCCC1
Asked: Sequence the entries by GSTO binding assay (% Inhibition at 10 µM) Recombinant, beginning with the highest number. // format: requested-order list of labels
Given back: A, D, B, C, E
